# target: the molecule itself
# protocol.description: SEC
property.name: stoichiometry N
// response body must contain only the number

Q: What value of stoichiometry N has been recorded for this entry: UbaA D131N, purified (enzyme, Haloferax volcanii, UniProt D4GSF3 1-270, looked up) MTLSLDATQLDRYSRHIIMDEVGPEGQGRLLSSRVVVVGAGGLGAPAIQYLAAVGVGELVVVDDDVVERSNLQRQVVHCDDDVGTPKAESAAAFVRGLNPDVSVEPVEARVDKSNVHEVVAGSDVVVDASNNFPTRYLLNDVCRFEGIPLVHGAIYKFEGQATTLVPDGPCYRCLFPEAPEPGTVPDCATTGVLGVLPGTVGCIQATEAMKLLLDEGEALDGRLLFYDAMDMTFETVPYRTNPDCPVCGEGGVDSIEDIDYVESCAISLD
Ans: 2
